Target: μ-opioid receptor (Homo sapiens)
Sequence (P35372 whole entry, species assumed): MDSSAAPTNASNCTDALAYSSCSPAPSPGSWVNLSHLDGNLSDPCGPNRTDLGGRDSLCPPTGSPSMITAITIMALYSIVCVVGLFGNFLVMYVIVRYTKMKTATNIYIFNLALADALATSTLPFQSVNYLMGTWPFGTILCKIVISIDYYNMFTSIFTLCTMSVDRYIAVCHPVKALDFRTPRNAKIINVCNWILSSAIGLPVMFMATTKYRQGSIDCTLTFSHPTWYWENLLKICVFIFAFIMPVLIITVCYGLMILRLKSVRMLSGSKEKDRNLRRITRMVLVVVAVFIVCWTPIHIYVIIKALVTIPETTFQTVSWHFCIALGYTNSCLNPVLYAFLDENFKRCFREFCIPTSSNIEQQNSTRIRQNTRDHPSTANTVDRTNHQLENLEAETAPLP
reported-metric: IC50 (µM)
Answer in µM, number only, no unit symbol.

IN: State recorded IC50 with μ-opioid receptor (Homo sapiens), entry COc1cccc(NC[C@H](F)Cn2c3ccc(Br)cc3c3cc(Br)ccc32)n1 [(−)-15] , no comment.
OUT: 8.2
